Experiment: folding enthalpy; higher = less favourable; fluorescence melt of hairpins on a sequencing array, two-state fit
Conditions: sodium 0.088 M
# folding enthalpy per entry
# output: bare number, implied unit kcal/mol

See these solved cases before continuing.
                      sequence_entry  numeric_result
0  GTTACTGAAAAGTAAC ((((((....))))))           -33.8
1  GGTTCGGAAACGAACC ((((((....))))))           -33.2

Continue with the sequence presented below.
input: Would you mind telling me what folding enthalpy value was observed for GATCACAAACGTGATC ((((((....)))))) ?
output: -33.2

----------
# folding enthalpy per entry
Assay: folding enthalpy; higher = less favourable; fluorescence melt of hairpins on a sequencing array, two-state fit
Settings: sodium 0.088 M
# output: bare number, implied unit kcal/mol

>>> df
                          sequence_entry  unit_of_measure  numeric_result
0  GTCAGCGCGAAAGCGGAC (((..(((....))))))         kcal/mol           -15.6
1              GCGGCTGACCGC ((((....))))         kcal/mol           -24.3
2      GATCATAACTATGATC ((((((....))))))         kcal/mol           -35.8
3  GGATCACGAAAGTGCTCC (((.(((....))).)))         kcal/mol           -27.4
4  GGTTAAGGAAACTTAATC (.(((((....))))).)         kcal/mol           -21.7

input: Would you mind telling me what folding enthalpy value was observed for GGACACGGAAACGCGTCC ((((.((....)).)))) ?
output: -46.4

input: Would you mind telling me what folding enthalpy value was observed for GAAATCCGAAAGGATTC (((.(((....)))))) ?
output: -11.2

input: Would you mind telling me what folding enthalpy value was observed for GGACTAGGAAACTAGTCC (((((((....))))))) ?
output: -44

input: Would you mind telling me what folding enthalpy value was observed for GATCAATTACTTGATC ((((((....)))))) ?
output: -31.4

input: Would you mind telling me what folding enthalpy value was observed for GCTTGTGGAAACATGAGC (((..((....))..))) ?
output: -29.4

input: Would you mind telling me what folding enthalpy value was observed for GCTCCTCGAAAGAGAGC (((.(((....)))))) ?
output: -30

input: Would you mind telling me what folding enthalpy value was observed for GGTACCGAAAGGTCGACC ((((((....)))..))) ?
output: -13.6

----------
Assay: folding enthalpy; higher = less favourable; fluorescence melt of hairpins on a sequencing array, two-state fit
Settings: sodium 0.088 M
Could you label it condition met if measured folding enthalpy is -20 kcal/mol or higher, and condition not met otherwise?

Example entries begin here.
In [3]: df
Out[3]:
                          sequence_entry        class_label
0      GATCGGAACGCCGATC ((((((....))))))  condition not met
1              GCGAGTTATCGC ((((....))))  condition not met
2      GATCATGAAGATGATC ((((((....))))))  condition not met
3  GCCCGGCGAAAGCCGAGC ((.((((....)))).))      condition met
4  GCAGCAACGAAAGTTTGC (((..(((....))))))      condition met

input: Does the reported folding enthalpy for GGACCGGGAAACCGACCC ((..(((....)))..)) fall at or above the -20 kcal/mol mark?
output: condition met

input: Does the reported folding enthalpy for GGGTACGGAAACGCACCC ((((.((....)).)))) fall at or above the -20 kcal/mol mark?
output: condition not met

input: Does the reported folding enthalpy for GGGCTGGGAAACCAGTCC ((.((((....)))).)) fall at or above the -20 kcal/mol mark?
output: condition not met

----------
Test: melting temperature; fluorescence melt of hairpins on a sequencing array, two-state fit, raised by 9.35 °C to match UV melts
Conditions: sodium 0.088 M
# Tm per entry
# output: bare number, implied unit °C

See these solved cases before continuing.
>>> df
                          sequence_entry  numeric_result
0  GTGCCTGGAAACAGGTGC (..((((....))))..)            48.9
1  GGAACTCCGAAAGGATCC (((..(((....))))))              27

Continue with the sequence presented below.
input: Would you mind telling me what Tm value was observed for GCCAACGGAAACGCTGGC ((((.((....)).)))) ?
output: 52

----------
# folding enthalpy per entry
Assay: folding enthalpy; higher = less favourable; fluorescence melt of hairpins on a sequencing array, two-state fit
Settings: sodium 0.088 M
# output: bare number, implied unit kcal/mol

input: Would you mind telling me what folding enthalpy value was observed for GATCATGAGTATGATC ((((((....)))))) ?
output: -31.1

input: Would you mind telling me what folding enthalpy value was observed for CTATCGAAAGATAG (((((....))))) ?
output: -21.7

input: Would you mind telling me what folding enthalpy value was observed for GCCACGCGAAAGCATAGC ((.(.((....)).).)) ?
output: -9.06

input: Would you mind telling me what folding enthalpy value was observed for GTCATCGAAAGATAAGAC ((((((....)))..))) ?
output: -21

input: Would you mind telling me what folding enthalpy value was observed for GATCGTGTTACGATC ((((((...)))))) ?
output: -35.6

input: Would you mind telling me what folding enthalpy value was observed for GTGAAGGGAAACCTTTAC ((.((((....)))).)) ?
output: -25.3

input: Would you mind telling me what folding enthalpy value was observed for GAATACGAAAGTATTC ((((((....)))))) ?
output: -34.4

input: Would you mind telling me what folding enthalpy value was observed for GATCATCATGATGATC ((((((....)))))) ?
output: -38

input: Would you mind telling me what folding enthalpy value was observed for GCGACCCTCGC ((((...)))) ?
output: -20.7

----------
Assay: melting temperature; fluorescence melt of hairpins on a sequencing array, two-state fit, raised by 9.35 °C to match UV melts
Conditions: sodium 0.088 M
Our labelling divides records by Tm into ranges: low-valued: < 50 °C; mid-valued: ≥ 50 °C and < 60 °C; high-valued: ≥ 60 °C

                          sequence_entry  class_label
0  GTCACCGAAAGGTGAGAC ((((((....)))..)))   low-valued
1    GCTGCCGAAAGGCAAGC ((((((....))).)))  high-valued
2  GCTCAGGGAAACCTGGGC ((.((((....)))).))   mid-valued
3  GAACGCGAAAGCGCTTTC ((((((....)))..)))   low-valued
4  GCATAAGGAAACTTACGC ((.((((....)))).))   low-valued
5  GGTACTGGAAACAGTGTC (..((((....))))..)   low-valued
6  GAACGCGAAAGCGTTTTC ((((((....)))..)))   mid-valued
7  GGCCTCACGAAAGTGGCC (((..(((....))))))   mid-valued
8  GTCGACGGAAACGCCGAC ((((.((....)).))))   mid-valued
9      CGCGGACCGATCCGCG ((((((....))))))  high-valued

input: Category lookup for the sequence CGTGCGGAAACGCAAACG ((((((....)))..)))
output: low-valued

----------
Test: folding enthalpy; higher = less favourable; fluorescence melt of hairpins on a sequencing array, two-state fit
Settings: sodium 0.088 M
Could you label it yes if measured folding enthalpy is -100 kJ/mol or higher, and no otherwise?

Example entries begin here.
>>> df
                          sequence_entry  class_label
0    GCGTACCGAAAGGTCGC (((.(((....))))))           no
1  GCCCATGGAAACATAGGC (((.(((....))).)))           no
2  GGTGTCGGAAACGACGCC ((.((((....)))).))           no

input: Does the reported folding enthalpy for GATCCAATCATGGATC ((((((....)))))) fall at or above the -100 kJ/mol mark?
output: no

input: Does the reported folding enthalpy for GATACCGAAAGGTTAATC ((((((....)))..))) fall at or above the -100 kJ/mol mark?
output: yes

input: Does the reported folding enthalpy for GCCATAGGAAACCATGGC (((((.(....).))))) fall at or above the -100 kJ/mol mark?
output: no

input: Does the reported folding enthalpy for GTGGACGAAAGTCACCAC ((((((....)))..))) fall at or above the -100 kJ/mol mark?
output: yes

input: Does the reported folding enthalpy for GTGCCCGGAAACGGGTAC ((.((((....)))).)) fall at or above the -100 kJ/mol mark?
output: no

input: Does the reported folding enthalpy for GTTCCTCGAAAGAGCAAC (((.(((....))).))) fall at or above the -100 kJ/mol mark?
output: yes

input: Does the reported folding enthalpy for GGCCGAGGAAACCCAGCC (((.(.(....).).))) fall at or above the -100 kJ/mol mark?
output: yes

input: Does the reported folding enthalpy for GAAAGGGAAACCTTTC ((((((....)))))) fall at or above the -100 kJ/mol mark?
output: no
